Taken from the Human Domainome abundance scans (Beltran et al. 2025).

B1: DnaJ homolog subfamily C member 2, residues 451 to 503; numbered along this chain, Q99543 (parent)
chain: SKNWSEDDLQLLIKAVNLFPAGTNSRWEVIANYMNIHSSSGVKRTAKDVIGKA

- Variants of: B1
- measurement description: abundance fitness (aPCA) (normalised: wild type 0, dead -1); higher = more abundant; growth selection in yeast, the domain comes from the species named
- experimental context: Homo sapiens
Would you kindly list abundance fitness for each of these variants?

Recall and state the measured abundance fitness for I30Q . -1

Please supply the value of reported abundance fitness for the item I36Q 0.079

Note abundance fitness for the variant shown: I13R 0.086

Identify measured abundance fitness associated with K52M -0.247

// fetch abundance fitness given entry N3K -0.441

Supply recorded abundance fitness for E28F here. -0.376

Look up and state reported abundance fitness for I30G -0.905

Give abundance fitness for A21D -0.039

For the variant L12W , report abundance fitness. -0.177

Quote abundance fitness reported for A15E please. -0.965

Please give the documented abundance fitness of Q10H -0.254

# return recorded abundance fitness for input K52I -0.094

Tell me abundance fitness reported for K52F -0.329

Given D48H , respond with its abundance fitness. -0.539

Hello, please tell me recorded abundance fitness for this one: E6D -0.154

Output abundance fitness of S39L -0.095

Consider the variant S38E and give its recorded abundance fitness. -0.609

Entry A31F needs its abundance fitness filled in; supply it. -1.01

Give abundance fitness for the following variant: S40P -0.52

Answer with the recorded abundance fitness of I36L only. 0.049

Given the variant N24K , write its reported abundance fitness. -0.013

Annotate the variant A15Y with its measured abundance fitness. -0.688
